Entry source: patent US8791141B2

TESTED ON: CYP11B1 (steroid 11-hydroxylase) (Homo sapiens, UniProt P15538)
Construct: the NCI-H295R cells have CYP11B2 (aldosterone synthase) and CYP11B1 (steroid 11-hydroxylase)
Sequence (P15538 25-503): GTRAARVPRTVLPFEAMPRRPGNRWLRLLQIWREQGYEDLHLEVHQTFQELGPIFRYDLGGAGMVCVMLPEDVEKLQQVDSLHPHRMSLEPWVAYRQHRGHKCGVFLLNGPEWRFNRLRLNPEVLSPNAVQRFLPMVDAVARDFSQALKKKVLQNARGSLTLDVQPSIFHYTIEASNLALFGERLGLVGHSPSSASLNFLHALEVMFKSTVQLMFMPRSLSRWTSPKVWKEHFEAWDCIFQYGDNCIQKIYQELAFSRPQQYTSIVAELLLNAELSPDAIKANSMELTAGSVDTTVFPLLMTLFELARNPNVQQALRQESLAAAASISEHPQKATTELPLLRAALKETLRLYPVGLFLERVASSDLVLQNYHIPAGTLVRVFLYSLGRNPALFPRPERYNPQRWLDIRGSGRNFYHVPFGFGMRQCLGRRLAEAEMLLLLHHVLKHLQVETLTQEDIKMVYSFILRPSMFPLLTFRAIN
EXPERIMENTAL PROTOCOL: Inhibition of cortisol secretion in NCI-H295R cells
CONDITION CONTEXT: human adrenocortical carcinoma NCI-H295R cells, 24 hours with cell stimulant
Experimental: The activities of a compound according to the present invention can be assessed by the following in vitro method well-described in the art. In particular, the inhibition of aldosterone and cortisol secretion in vitro can be determined by the following assay. […] Measurement of aldosterone can also be performed using a 96-well plate format. […] The amount of aldosterone in each sample is calculated by comparing with a standard curve generated using known quantities of the hormone. […]
OBSERVATION TYPE: log10 of IC50 (log10 of the value in µM)

COc1ccncc1-c1cc2cc(C#N)ccc2[nH]1
-0.40
CCS(=O)(=O)NCc1cncc(-c2c(C)c3ccccc3n2C)c1
0.21
COCCc1cncc(-c2c(C#N)c3ccccc3n2C)c1
-1.66
Cn1c(-c2cncc(CNS(=O)(=O)CC(F)(F)F)c2)cc2ccc(Cl)cc21
-0.10
Cn1c(-c2cnccc2CO)cc2ccccc21
-0.28
Cn1c(-c2cncc(OS(C)(=O)=O)c2)c(C#N)c2ccccc21
-0.49

* * *

TESTED ON: CYP11B2 (aldosterone synthase) (Homo sapiens, UniProt P19099)
Construct: the NCI-H295R cells have CYP11B2 (aldosterone synthase) and CYP11B1 (steroid 11-hydroxylase)
Sequence (P19099 25-503): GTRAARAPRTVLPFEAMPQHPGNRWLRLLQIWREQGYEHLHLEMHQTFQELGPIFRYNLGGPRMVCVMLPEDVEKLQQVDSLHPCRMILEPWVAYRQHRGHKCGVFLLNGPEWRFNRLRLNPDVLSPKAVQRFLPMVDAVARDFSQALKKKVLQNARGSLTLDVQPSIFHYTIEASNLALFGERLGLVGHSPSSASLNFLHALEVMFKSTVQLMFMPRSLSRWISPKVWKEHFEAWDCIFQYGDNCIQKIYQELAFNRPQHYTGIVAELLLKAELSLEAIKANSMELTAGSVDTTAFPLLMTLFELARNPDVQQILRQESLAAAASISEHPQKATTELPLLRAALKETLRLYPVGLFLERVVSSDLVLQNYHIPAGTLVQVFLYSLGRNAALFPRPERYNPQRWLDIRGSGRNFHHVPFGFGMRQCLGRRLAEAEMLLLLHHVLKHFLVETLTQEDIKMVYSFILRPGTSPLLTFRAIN
EXPERIMENTAL PROTOCOL: Inhibition of aldosterone secretion in NCI-H295R cells
CONDITION CONTEXT: human adrenocortical carcinoma NCI-H295R cells, 24 hours with cell stimulant
Counter-ions that a name gives are not always drawn.
In this section, each of the compounds is paired with its reported IC50.
OBSERVATION TYPE: IC50 (nM)

CCS(=O)(=O)Nc1cncc(-c2c(COC)c3ccc(Cl)cc3n2C)c1
44
Cc1c(-c2cccnc2)n(Cc2cccc(C#N)c2)c2cc(F)ccc12 [Example 15, hydrochloride]
27
Cn1c(-c2cncc(Cl)c2)c(C#N)c2ccccc21
78
Cn1c(-c2cnccc2Cl)cc2ccccc21
9
CC(C)NC(=O)NCc1cncc(-c2c(C#N)c3ccc(Cl)cc3n2C)c1
3
CCS(=O)(=O)NCc1cncc(-c2cc3ccc(Cl)cc3n2C)c1
2
COc1ccncc1-c1cc2cc(C#N)ccc2[nH]1
40
Cn1c(-c2cnccc2CO)cc2ccccc21
85
Cc1c(-c2cccnc2)n(COC(=O)C(C)(C)C)c2ccc(Cl)cc12
10
CCS(=O)(=O)Nc1cncc(-c2cc3ccccc3n2C)c1
36
Cn1c(-c2cncc(CN3CCN(S(C)(=O)=O)CC3)c2)c(C#N)c2ccc(Cl)cc21
2
CC(C)S(=O)(=O)NCc1cncc(-c2c(C#N)c3ccc(Cl)cc3n2C)c1
21
COCCOC(=O)NCc1cncc(-c2c(C#N)c3ccc(Cl)cc3n2C)c1
4
N#Cc1cccc(C(=O)n2c(-c3cccnc3)cc3cc(C#N)ccc32)c1
30
Cc1c(-c2cccnc2)[nH]c2ccc(C#N)cc12
1
CCS(=O)(=O)N(C)c1cncc(-c2cc3ccccc3n2C)c1
2
Cc1c(-c2cccnc2)n(Cc2ccc(C(=O)O)cc2)c2cccc(F)c12
14
COCCc1cncc(-c2c(C#N)c3ccccc3n2C)c1
4
CCNS(=O)(=O)c1cncc(-c2cc3ccccc3n2C)c1
23
